System: Klebsiella pneumoniae
Assay: Antibacterial activity against Klebsiella pneumoniae after 72 hrs by disk diffusion method
Assay type: functional
Would you mind labelling by inhibition zone (IZ)? At or over 20 mm is 1 (yes), under is 0 (no).

Task item: Quick check: does CC1(C)S[C@@H]2[C@H](NC(=O)Cc3ccccc3)C(=O)N2[C@H]1C(=O)O [PENICILLIN G] have inhibition zone (IZ) greater than or equal to 20 mm?
Reply: 0 (no)

Task item: Quick check: does CO/N=C(\C(=O)N[C@@H]1C(=O)N2C(C(=O)O)=C(COC(C)=O)CS[C@H]12)c1csc(N)n1 [CEFOTAXIME] have inhibition zone (IZ) greater than or equal to 20 mm?
Reply: 0 (no)

Task item: Quick check: does CN[C@H](CC(C)C)C(=O)N[C@H]1C(=O)N[C@@H](CC(N)=O)C(=O)N[C@H]2C(=O)N[C@H]3C(=O)N[C@H](C(=O)N[C@H](C(=O)O)c4cc(O)cc(O)c4-c4cc3ccc4O)[C@H](O)c3ccc(c(Cl)c3)Oc3cc2cc(c3O[C@@H]2O[C@H](CO)[C@@H](O)[C@H](O)[C@H]2O[C@H]2C[C@](C)(N)[C@H](O)[C@H](C)O2)Oc2ccc(cc2Cl)[C@H]1O [VANCOMYCIN] have inhibition zone (IZ) greater than or equal to 20 mm?
Reply: 1 (yes)

Task item: Quick check: does CC1(C)S[C@@H]2[C@H](NC(=O)[C@H](N)c3ccccc3)C(=O)N2[C@H]1C(=O)O [AMPICILLIN] have inhibition zone (IZ) greater than or equal to 20 mm?
Reply: 0 (no)

Task item: Quick check: does CN(C)[C@@H]1C(O)=C(C(N)=O)C(=O)[C@@]2(O)C(O)=C3C(=O)c4c(O)cccc4[C@@](C)(O)[C@H]3C[C@@H]12 [TETRACYCLINE] have inhibition zone (IZ) greater than or equal to 20 mm?
Reply: 1 (yes)

Task item: Quick check: does CC1COc2c(N3CCN(C)CC3)c(F)cc3c(=O)c(C(=O)O)cn1c23 (stereo unspecified) [OFLOXACIN] have inhibition zone (IZ) greater than or equal to 20 mm?
Reply: 1 (yes)
